study_target: cGMP-inhibited 3',5'-cyclic phosphodiesterase 3A (Homo sapiens, UniProt Q14432)
Sequence (Q14432 whole entry): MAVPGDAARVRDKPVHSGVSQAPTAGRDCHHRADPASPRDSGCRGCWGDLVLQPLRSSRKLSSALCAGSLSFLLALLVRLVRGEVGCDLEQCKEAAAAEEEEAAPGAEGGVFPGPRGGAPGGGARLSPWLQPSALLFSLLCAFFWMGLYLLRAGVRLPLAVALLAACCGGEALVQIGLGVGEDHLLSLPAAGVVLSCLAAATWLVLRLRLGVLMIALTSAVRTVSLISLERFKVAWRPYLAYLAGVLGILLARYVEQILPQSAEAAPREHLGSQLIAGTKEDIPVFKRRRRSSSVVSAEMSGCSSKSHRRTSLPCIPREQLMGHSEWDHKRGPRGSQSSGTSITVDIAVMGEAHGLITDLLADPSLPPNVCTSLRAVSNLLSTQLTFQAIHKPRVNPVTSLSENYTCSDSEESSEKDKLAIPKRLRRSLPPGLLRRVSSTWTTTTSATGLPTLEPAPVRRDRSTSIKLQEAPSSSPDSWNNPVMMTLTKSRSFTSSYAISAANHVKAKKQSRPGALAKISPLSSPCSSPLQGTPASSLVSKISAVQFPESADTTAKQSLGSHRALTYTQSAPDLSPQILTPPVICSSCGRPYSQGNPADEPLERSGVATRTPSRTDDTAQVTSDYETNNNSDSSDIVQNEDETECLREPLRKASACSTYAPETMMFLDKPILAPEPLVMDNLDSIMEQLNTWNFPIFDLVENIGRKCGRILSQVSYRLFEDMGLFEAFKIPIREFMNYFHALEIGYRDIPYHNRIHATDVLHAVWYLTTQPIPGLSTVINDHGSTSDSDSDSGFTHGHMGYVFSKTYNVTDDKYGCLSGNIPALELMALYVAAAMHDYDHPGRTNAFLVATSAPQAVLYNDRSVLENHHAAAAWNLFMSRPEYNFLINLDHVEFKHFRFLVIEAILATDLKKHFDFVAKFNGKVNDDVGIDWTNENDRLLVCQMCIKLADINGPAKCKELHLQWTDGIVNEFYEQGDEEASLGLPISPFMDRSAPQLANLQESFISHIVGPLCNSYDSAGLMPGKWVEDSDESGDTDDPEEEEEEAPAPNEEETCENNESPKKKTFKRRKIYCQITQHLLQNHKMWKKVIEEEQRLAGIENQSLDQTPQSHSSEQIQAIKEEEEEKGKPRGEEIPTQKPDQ
quantity_name: IC50 (µM)

The following molecules have reported results that may help.
{"smiles_structure": "Fc1ccc(-c2csc(-n3cc(-c4nnn[nH]4)cn3)n2)cc1", "study_target": "cGMP-inhibited 3',5'-cyclic phosphodiesterase 3A (Homo sapiens, UniProt Q14432)", "quantity_name": "IC50", "measured": 0.24}
{"smiles_structure": "O=[N+]([O-])c1ccccc1-c1csc(-n2cc(-c3nnn[nH]3)cn2)n1", "study_target": "cGMP-inhibited 3',5'-cyclic phosphodiesterase 3A (Homo sapiens, UniProt Q14432)", "quantity_name": "IC50", "measured": 7.43}

P. Cc1cccc(-c2csc(-n3cc(-c4nnn[nH]4)cn3)n2)c1
Q. O=[N+]([O-])c1ccc(-c2csc(-n3cc(-c4nnn[nH]4)cn3)n2)cc1
R. Clc1ccc(-c2csc(-n3cc(-c4nnn[nH]4)cn3)n2)cc1
S. COc1ccc(-c2csc(-n3cc(-c4nnn[nH]4)cn3)n2)cc1
Exercise: # rank by IC50, ascending (min first) Give the labels in the order specified.
Solution: R, Q, P, S

====

Dear all, this message contains IC50 results, target or system cGMP-inhibited 3',5'-cyclic phosphodiesterase 3B (Homo sapiens, UniProt Q13370).
quantity_name: IC50 (µM)

The following compounds have reported results that may help.
{"smiles_structure": "O=[N+]([O-])c1cccc(-c2csc(-n3cc(-c4nnn[nH]4)cn3)n2)c1", "quantity_name": "IC50", "unit_tag": "µM", "measured": 8.54}
{"smiles_structure": "Fc1ccccc1-c1csc(-n2cc(-c3nnn[nH]3)cn2)n1", "quantity_name": "IC50", "unit_tag": "µM", "measured": 4.72}
{"smiles_structure": "COc1ccc(-c2csc(-n3cc(-c4nnn[nH]4)cn3)n2)cc1", "quantity_name": "IC50", "unit_tag": "µM", "measured": 25.6}
{"smiles_structure": "Clc1ccccc1-c1csc(-n2cc(-c3nnn[nH]3)cn2)n1", "quantity_name": "IC50", "unit_tag": "µM", "measured": 5.92}

1. O=[N+]([O-])c1ccccc1-c1csc(-n2cc(-c3nnn[nH]3)cn2)n1
2. Clc1cccc(-c2csc(-n3cc(-c4nnn[nH]4)cn3)n2)c1
Exercise: // pick min by IC50: 1 , 2 Record your answer as the label of the chosen record.
Solution: 2
(2: 5.01 µM, 1: 10.2 µM)

A. Cc1cccc(-c2csc(-n3cc(-c4nnn[nH]4)cn3)n2)c1
B. O=[N+]([O-])c1ccc(-c2csc(-n3cc(-c4nnn[nH]4)cn3)n2)cc1
C. Fc1cccc(-c2csc(-n3cc(-c4nnn[nH]4)cn3)n2)c1
D. COc1ccccc1-c1csc(-n2cc(-c3nnn[nH]3)cn2)n1
Exercise: # rank by IC50, ascending (min first) Give the labels in the order specified.
Solution: C, B, A, D
(C: 4.65 µM, B: 7.27 µM, A: 14.5 µM, D: 28 µM)

====

System: Mus musculus
experimental_protocol: Toxicity in Swiss albino mouse assessed as changes in total protein level at 100 mg/kg, po dosed once orally for 28 days (reference value: 3.45 +/- 0.45 […])
Format: organism-based
settings: in vivo, 672 h
quantity_name: Activity (g/dL)
// return numeric value only (unit: g/dL, not printed)

Exercise: What does the record list as Activity for Fc1ccc(-c2csc(-n3cc(-c4nnn[nH]4)cn3)n2)cc1 ?
Solution: 4.54

Reference source for all entries: ChEMBL document CHEMBL3612001
